tested on: SF-539 CNS; assay: NCI tumour cell line growth inhibition, 48 h
Where a SMILES comes first, the peptide text is derived from it. [ ]: non-standard residue; d: D form. The star is where a group is joined. NMeAc5c = CNC1(C(=O)O)CCCC1; Boc = CC(C)(C)OC(=O)*; OBn = c1ccc(CO*)cc1
Outcome: MET for TGI of at least 20 µM; NOT MET for anything lower.

CCOC(=O)C1(C/C=C/CBr)Cc2ccccc2C1=O (stereo not drawn): NOT MET
COC1/C=C/OC2(C)Oc3c(C)c(O)c4c(O)c(c(/C=N/Nc5ccc([N+](=O)[O-])cc5[N+](=O)[O-])c(O)c4c3C2=O)NC(=O)C(C)=C/C=C/C(C)C(O)C(C)C(O)C(C)C(OC(C)=O)C1C (stereo not drawn): NOT MET

Q. Evaluate O=C1/C(=C/c2ccccc2)N=C2Sc3c(nc[nH]c3=O)N12 : TGI at minimum 20 µM?
A. MET

Q. Has Nc1ccccc1S(=O)(=O)N(CC(=O)O)c1ccccc1 a recorded TGI greater than or equal to 20 µM?
A. MET

Q. # check: TGI of Cc1ccc(C(=O)O)cc1S(=O)(=O)Nn1cnc2ccc(S(=O)(=O)Nc3ccccc3C(=O)O)cc2c1=O is greater than or equal to 20 µM
A. MET

Q. Reported TGI at or above 20 µM? CN(C(=O)C(Cc1ccccc1)NC(=O)OC(C)(C)C)C1(C(=O)NC(Cc2ccccc2)C(=O)OCc2ccccc2)CCCC1 (stereo not drawn) (Boc-Phe-[NMeAc5c]-Phe-OBn; configuration not given here)
A. MET

Q. Hi team, for O=C(CCc1nc(=S)[nH][nH]1)Nc1cc(Cl)c(Cl)cc1Cl , is the recorded TGI at or above 20 µM?
A. MET

Q. Dear colleague, could you confirm whether C=C(C)C(=O)OC1C/C(CO)=C\C(O)C/C(C)=C/C2OC(=O)C(=C)C21 (stereo not drawn) has TGI at or above 20 µM?
A. MET

Q. Evaluate CCCN(C(=O)c1ccccc1)C(C#N)c1ccc(C(C#N)N(CCC)C(=O)c2ccccc2)cc1 (stereo not drawn) : TGI at minimum 20 µM?
A. MET

Q. I'd appreciate it if you could say whether COC(=O)C([C@H](NC1(c2ccccc2)c2ccccc2-c2ccccc21)C(=O)OC)N(NC(=O)OCc1ccccc1)C(=O)OCc1ccccc1 (mixture of isomers) has TGI at least equal to 20 µM.
A. MET

Q. Hi, just wondering whether Nc1ccccc1C#C/C=C\C#Cc1ccccc1OC(F)(F)F shows TGI of 20 µM or higher.
A. NOT MET

Q. Reported TGI reaches at least 20 µM for CNC(=S)OCCC(C)CCCC(C)C (stereo not drawn) ?
A. MET

Q. Determine whether this molecule has TGI no lower than 20 µM: C=CCO[C@H]1CO[C@H]2[C@@H]1OC[C@@H]2Oc1ccc(Nc2ccnc(Nc3ccc(O[C@H]4CO[C@H]5[C@@H]4OC[C@@H]5OCC=C)c(Cl)c3)n2)cc1Cl
A. NOT MET

Q. Entry CCOC1Oc2ccccc2C(=O)/C1=C/Nc1ccc(C(C)=O)cc1 (stereo not drawn) : is its TGI no less than 20 µM?
A. MET

Q. Record OCc1cc2ccccc2c2c3c(ccc12)OCO3 ; criterion: TGI no lower than 20 µM. Met?
A. MET

Q. Tell me whether TGI is at least 20 µM here: COc1ccc(-c2cc(O)c3nc4ccccc4n3c2)cc1
A. MET

Q. Identify whether the reported TGI of the following molecule is 20 µM or greater: CCOC(=O)C(SCCO)C(C(=O)OCC)n1cnc2c(=O)[nH]c(NC(C)=O)nc21 (stereo not drawn)
A. MET
